Values from patent US20120114665A1

Molecular target: T1, penta-his-tagged monkey (Macaca fascicularis) RANKL (Macaca fascicularis, UniProt O14788 125-317 (human entry))
T1 construct: also called his-mfRANKL; mfRANKL; not shown: penta-his tag
T1 chain: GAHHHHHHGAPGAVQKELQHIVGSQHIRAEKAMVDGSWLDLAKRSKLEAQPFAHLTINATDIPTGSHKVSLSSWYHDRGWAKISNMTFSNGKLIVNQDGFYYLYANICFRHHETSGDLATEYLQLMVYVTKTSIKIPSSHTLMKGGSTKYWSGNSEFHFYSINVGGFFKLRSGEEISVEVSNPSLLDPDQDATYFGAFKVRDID
Assay: competition ELISA: 150 pM his-mfRANKL pre-mixed with antibody, free RANKL detected on hRANK-hFc plate
Sorting guide: entries reporting IC50 beneath 1000 pM go in the MET pile, the rest go in the NOT MET pile.

Is IC50 strictly under 1000 pM for the entry H4H007P (antibody, V domains shown, Purified antibody from clone 2E12) VH: QVQLVESGGGVVQPGRSLRLSCAASGFTFSGYGMHWVRQAPGMGLEWVAVISYDGINKYYADSVKGRFTISRDNSKNTLFLQMNSLRAEDTALYYCAKCLSGTYWGYGMDVWGQGTTVTVS VL: DIQMTQSPSTLSASVGDRVTITCRASQSISSWLAWYQLKPGKAPKLLIYKASSLESGVPSRFGGSGSGTEFTLTISSLQPDDFATYYCQHYNSYSWTFGQGTKVEIK ? NOT MET

Is IC50 strictly under 1000 pM for the entry H4H002P (antibody, V domains shown, Purified antibody from clone 1F8) VH: QVQLVESGGGVVQPGRSLRLSCAASGFTFTGYGMHWVRQAPDKGLEWVAVISYDGTNKYYVDSVKGRFTISRDNSQNTLYLQMNSLRAEDTAVYYCAKCLSGTYWGYGMDVWGQGTTVTVS VL: DIQMTQSPSTLSASVGDRVTITCRASRSINSWLAWYQQKPGKAPKLLIYKASSLESGVPSRFSGSGSGTEFTLTISSLQPDDFASYYCQQYNNYSWTFGQGTKVEIK ? NOT MET

Is IC50 strictly under 1000 pM for the entry H4H006P (antibody, V domains shown, Purified antibody from clone 2E11) VH: QVQLVESGGGVVQPGRSLRLSCAASGFTFGGYGMHWVRQAPDKGLEWVAVISYDGNNKYYVDSVKGRFTISRDNSKNMLYLQMNSLRAEDTAVYYCAKCLSGTYWGYGMDGWGQGTTVTVS VL: DIQMTQSPSTLSASVGDRVTITCRASQSISNWLAWYQQKPGKAPKLLIYKASNLQSGVPSRFSGSGSGTEFTLTISSLQPDDFATYYCQQYNNYSWTFGQGTKVEIK ? MET

Is IC50 strictly under 1000 pM for the entry H4H009P (antibody, V domains shown, Purified antibody from clone 2H10) VH: QVQLVESGGGVVQPGRSLRLSCAASGFTFSGYGIHWVRQAPDKGLEWVAVISYDGTNKYYGDSVKGRFTISRDNTKNTLYLQMNSLRTEDTAVYYCAKSLSGTYWGYGMDVWGQGTTVTVS VL: DIQMTQSPSTLSASVGDRVTITCRASQNIGNWLAWYQQKPGKAPKLLIYKASSLQNGVPSRFSGSGSGTEFTLTISSLQPDDFATYYCQRYNSYSWTFGQGTKVEIK ? MET

Is IC50 strictly under 1000 pM for the entry H4H010P (antibody, V domains shown, Purified antibody from clone 2H12) VH: QVQLVESGGGVVQPGRSLRLSCAASGFTFSGYGMHWVRQAPGKGLDWVTVISYDGSNKHYADSVKGRFTISRDNSKNTLYLQMSSLGPEDTAVYYCAKSLSGTYWGYGMDVWGQGTTVTVS VL: DIQMTQSPSTLSASVGDRVTITCRASQNISSWLAWYQQKPGKAPKLLIYKASSLESGVPSRFSGSGSGTEFTLTVSSLQPDDFATYYCQQYNRYSWTFGQGTKVEIK ? MET
